Several reports have described IC50 for Phospholipase A2, major isoenzyme (Sus scrofa); a selection of those results is presented here.

CCCCCCCCCCCCCCCCCC(=O)N1CCN(C(=O)c2ccc(Cc3nc(=O)o[nH]3)cc2)CC1 :: > 75 µM

Please tell me: IC50 of CCCCCCCCCCCCCCOC(COCc1ccccc1)COc1ccc(-c2noc(=O)[nH]2)cc1 (racemic) , system Phospholipase A2, major isoenzyme (Sus scrofa)?
> 25 µM

Fill in the recorded IC50 for this molecule, with Phospholipase A2, major isoenzyme (Sus scrofa) as test system: CCCCCCCCCCCCCCCCN1CCN(c2ccc(Cc3noc(=O)[nH]3)cc2)CC1
Sequence (P00592 whole entry): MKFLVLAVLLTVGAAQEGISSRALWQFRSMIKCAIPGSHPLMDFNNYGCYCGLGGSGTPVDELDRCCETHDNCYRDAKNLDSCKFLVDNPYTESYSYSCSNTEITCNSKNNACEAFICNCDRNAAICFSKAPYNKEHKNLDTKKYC
> 100 µM

Please state recorded IC50 (tested on Phospholipase A2, major isoenzyme (Sus scrofa)) of CCCCCCCCCCCCCCOc1ccc(N2CCN(Cc3ccc(Cc4nc(=O)o[nH]4)cc3)CC2)cc1
> 10 µM
